# Study system: NGF (nerve growth factor) (Homo sapiens, UniProt P01138 P01138:122-241)
# Sequence (P01138 122-241, one chain of several): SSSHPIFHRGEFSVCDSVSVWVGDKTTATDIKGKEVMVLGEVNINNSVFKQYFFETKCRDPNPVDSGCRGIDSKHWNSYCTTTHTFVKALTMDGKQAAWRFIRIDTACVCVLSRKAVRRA
# Assay notes: cell_activity; neurite; TF-1 0.042
# Protocol conditions: tags: R&D Systems; chain copies: 2

>  <Binder>
GGGUCCUGGAUAAGAGUUUCCGUCUCGUAUCCUGUUACCC (ssRNA, as 82(25) except dU36) [SEQ ID NO: 82(41)]

>  <IC50, nM>
0.084

$$$$
